Test system: STK39
Settings: concentration: 1 μM, replicates: in singlicate; n = 1;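 note: KINOMEscan kinase panel screen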
Quick reference: %Inh of the listed items.

# STRUCTURE, %Inh
rows = [
    ("COc1ccc(Nc2nccc(-c3cccc(NC(=O)c4cc5cc(F)ccc5[nH]4)c3)n2)cc1", "4%"),
    ("COc1cccc(-c2cc(-c3c[nH]nc3-c3ccccn3)ccn2)c1", "13%"),
    ("Cc1cc(-c2ccc3c(c2)CC[C@@H](N[C@@H](C)c2ccccc2)C3)cnc1N.Cl", "1%"),
    ("Cl.c1ccc(-c2n[nH]cc2-c2ccnc(-c3ccc(CN4CCOCC4)cc3)c2)nc1", "0%"),
    ("CCn1c(-c2ccccn2)nc2cnccc21", "31%"),
]

* * *

System: ERK2
Construct: gene MAPK1
Conditions: concentration: 1 μM, replicates: in singlicate; n = 1
Listing of recorded %Inh by entry.

# COMPOUND, STUDY SYSTEM, %Inh
rows = [
    ("C[C@@H]1CCCCN1c1cc(-c2ccc3c(N)n[nH]c3c2)nc(N)n1", "ERK2", "0%"),
    ("Cc1ccc(-c2cc(-c3c[nH]nc3-c3ccccn3)ccn2)cc1", "ERK2", "0%"),
    ("COC(=O)c1c(-c2ccccc2)c2cc(C(=O)O)ccc2c(=O)n1Cc1ccccc1", "ERK2", "16%"),
    ("Cc1ccccc1-n1cnc2c(N)ncnc21", "ERK2", "0%"),
    ("COc1cc2ncn(-c3cc(OCC4CCCO4)c(C(N)=O)s3)c2cc1OC (stereo not shown)", "ERK2", "0%"),
    ("Cc1ccc(C(=O)Nc2ccc(Nc3ccnc4cc(-c5ccccn5)ccc34)cc2O)cc1.Cl", "ERK2", "0%"),
    ("O=C(Nc1n[nH]c2nc(-c3nccs3)c(Br)cc12)C1CC1", "ERK2", "11%"),
]

* * *

Tested on: DLK
Construct: gene MAP3K12
Details: concentration: 1 μM, replicates: in singlicate; n = 1
Label key: true (1) means %Inh under 10%; false (0) means %Inh of 10% or more.

# COMPOUND, CATEGORY
data = [
    ("COC(=O)c1c(-c2ccccc2)c2cc(C(=O)O)ccc2c(=O)n1Cc1ccccc1", "true (1)"),
    ("O=C(O)COc1ncnc2cc(-c3ccc4[nH]ncc4c3)sc12", "false (0)"),
    ("Cn1ccc2ncnc(Oc3ccc(NC(=O)Nc4ccccc4)cc3)c21", "true (1)"),
    ("O=C(Nc1ccccc1)Nc1cccc(Oc2ccc3nccn3n2)c1", "true (1)"),
    ("Cl.O=C(Nc1cccc(-c2nn3ncccc3c2-c2ccnc(Nc3cccnc3)n2)c1)c1c(F)cccc1F", "false (0)"),
    ("Fc1cccc(COc2nnc(-c3ccc4c(c3)CCO4)o2)c1", "true (1)"),
    ("Cl.NC(=O)c1cccc(Nc2nccc(Nc3ccc(Oc4cccc(Cl)c4)c(Cl)c3)n2)c1", "false (0)"),
    ("COc1ccccc1CNC(=O)c1cc(C(=O)c2ccccc2C)c[nH]1", "false (0)"),
    ("CS(=O)(=O)c1ccc(-c2c(-c3ncn[nH]3)sc(N3CCOCC3)c2C#N)cc1", "false (0)"),
    ("Clc1cc(Cl)cc(Nc2ccnc(Nc3cc(Cl)cc(Cl)c3)n2)c1", "false (0)"),
    ("CC1=C(C(=O)Nc2cc3cn[nH]c3cc2F)C(c2ccc(C(F)(F)F)cc2)CC(=O)N1 (stereo not shown)", "true (1)"),
    ("CCn1c(-c2cccnc2O)nc2cnccc21", "false (0)"),
    ("O=C(Nc1n[nH]c2nc(-c3nccs3)c(Br)cc12)C1CC1", "false (0)"),
    ("COC(=O)c1c(-c2ccccc2)c2cc(OC)ccc2c(=O)n1Cc1ccccc1", "true (1)"),
    ("Cl.c1ccc(-c2n[nH]cc2-c2ccnc(-c3ccc(CN4CCOCC4)cc3)c2)nc1", "true (1)"),
    ("Cl.Oc1ccc(-c2nc(-c3ccccc3)[nH]c2-c2ccncc2)cc1", "false (0)"),
]
